tested on: TO-3-N3 (biotin conjugate); experiment: pull-down binding Z-score (relative to library population); higher = stronger binding; settings: RNA library: Library-2
Kindly state pull-down binding Z-score for each of the entries shown.
Answers are plain numbers.

Provide each entry's pull-down binding Z-score from the list below.
1. CCACUUGGCUAUGUAACACAUGGCUUAAAUUUGG [DMSMaPseq_invitro_SARS-CoV-2_Motif_85]
2. GGAGACAGGUGGUUUCUCAAUCGAUUUACCACAACUCU [SHAPE_invivo_SARS-CoV-2_Motif_209]
3. UAUCCAAACGCAAGCUUCGAUAAUUUUAAGUUUGUAUGUGAUA [DMSMaPseq_invitro_SARS-CoV-2_Motif_115]
4. GUGUCUGGCCCCAGCAGCCCAGACU [hsa-mir-6751]

Out:
1: 0.386; 2: -0.078; 3: 0.127; 4: 0.258
